# Tested on: ACHN renal
# EXPERIMENTAL_DETAILS: NCI-60 one-dose screen, 48 h (100 = growth as untreated, 0 = no growth, -100 = all killed)
# RUN_CONDITIONS: 10 µM unless noted
This is part of a sample that, as a whole, favours compounds with a hit. Of some 83,000 tested, about 20% had one in any assay. Active and inactive are the calls of the source. Rule for the calls: active = growth percent below 10; inactive = the rest.
Here the recorded growth is given for each entry.
PROPERTY_NAME: growth

molecule=C=C(C)[C@@H]1CC[C@]2(C(N)=O)CC[C@]3(C)[C@H](CC[C@@H]4[C@@]5(C)CC[C@H](OCCC#N)C(C)(C)[C@@H]5CC[C@]43C)[C@@H]12 system="ACHN renal" value_observed="74.1% (inactive)"
molecule=C[C@H](CCCC(=O)NCC#CCN1CCN(C)CC1)[C@H]1CC[C@H]2[C@@H]3CC[C@@H]4CC(=O)CC[C@]4(C)[C@H]3CC[C@]12C system="ACHN renal" value_observed="105% (inactive)"
molecule=S=C(c1ccc2c(c1)OCO2)N1CCN(c2cccc(Cl)c2)CC1 system="ACHN renal" value_observed="34.6% (inactive)"
molecule=CCOC(=O)C(=Cc1ccc(-c2ccccc2)cc1)C(=O)OCC system="ACHN renal" value_observed="34% (inactive)"
molecule="N=c1c(S(=O)(=O)c2ccccc2)cc2c(=O)n3ccccc3nc2n1CC1CCCO1 (stereo not drawn)" system="ACHN renal" value_observed="103% (inactive)"
molecule=Cc1ccc(-c2nc(N3CCNCC3)c3oc(-c4ccc(C)cc4)nc3n2)cc1 system="ACHN renal" value_observed="50.7% (inactive)"
molecule=C=C1C(=O)O[C@H]2[C@H]1CC/C(COC(=O)NCc1ccc(Cn3c(=O)sn(-c4ccc(C#N)cc4)c3=O)cc1)=C\CC[C@@]1(C)O[C@@H]21 system="ACHN renal" value_observed="79.5% (inactive)"
molecule="CC1=CCC(OC(=O)C(C)(C)CC(O)(C(C)O)C(O)C2(C)C=CC(Cc3ccc(C(C)C)cc3)(C(C)C)CC2)(C(C)C)CC1 (stereo not drawn)" system="ACHN renal" value_observed="102% (inactive)"

----------
# Test system: MOLT-4 leukemia
# EXPERIMENTAL_DETAILS: NCI-60 one-dose screen, 48 h
# RUN_CONDITIONS: 10 µM unless noted
Compounds without any hit were thinned out: in the full panel of roughly 83,000, 20% have a hit. Calls of active or inactive are those of the source. The calls were made as follows: active = growth percent below 10; inactive = the rest.
Classes used: true = active, false = inactive

compound=COc1ccc2nc(Cl)c(/C=C3\CC(c4ccccc4)=NN(c4ccccc4)C3=O)cc2c1 group_label=false
compound=Cc1nn(-c2ccccc2)c(N)c1N=C1NC(=O)/C(=C/c2ccc(Br)cc2)S1 group_label=false
compound=CN1CCN(CCOc2ccc(-c3cnc4c(-c5cccc(F)c5F)cnn4c3)cc2)CC1 group_label=false
compound="COc1ccc(C2=NN(C(C)=O)C(c3cn(-c4ccccc4)nc3-c3ccc(Cl)cc3)C2)cc1 (centres undefined)" group_label=false
compound=CN1CCN(CCCOc2cccc3nc(Nc4ccc(F)c(F)c4)ccc23)CC1 group_label=true
compound="COc1cc2c(c(OC)c1OC)C(=O)CC(c1cccc(NC(=O)c3ccc(C#N)cc3)c1)O2 (centres undefined)" group_label=false
compound="CC(=O)OC(c1ccccc1)C1CCOC1=O (centres undefined)" group_label=false
compound="O=C(NC1CC(F)C1)c1cc2cccnc2n1-c1ccc(Cl)c(Cl)c1 (centres undefined)" group_label=false
compound=N#Cc1cncc(-c2ccc3ncnc(Nc4cccc(Cl)c4)c3c2)c1 group_label=false
